tested-target: Histamine H3 receptor (Homo sapiens, UniProt Q9Y5N1)
Sequence (Q9Y5N1 whole entry): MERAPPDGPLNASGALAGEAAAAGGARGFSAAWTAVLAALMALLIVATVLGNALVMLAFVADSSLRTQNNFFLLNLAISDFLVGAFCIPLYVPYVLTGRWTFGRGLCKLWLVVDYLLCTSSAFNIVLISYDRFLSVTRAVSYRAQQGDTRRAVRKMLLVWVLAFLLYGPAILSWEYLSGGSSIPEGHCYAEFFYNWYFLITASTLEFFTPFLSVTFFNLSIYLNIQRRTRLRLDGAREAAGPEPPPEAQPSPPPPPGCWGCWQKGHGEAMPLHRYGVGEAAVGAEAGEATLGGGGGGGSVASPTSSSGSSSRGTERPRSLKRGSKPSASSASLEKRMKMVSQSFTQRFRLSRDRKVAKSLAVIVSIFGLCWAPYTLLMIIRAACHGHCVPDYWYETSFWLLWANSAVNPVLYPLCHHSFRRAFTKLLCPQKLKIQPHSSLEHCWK
test: Inverse agonist activity at human recombinant histamine H3 receptor assessed as effect on [35S]GTPgammaS binding
measure-name: EC50 (µM)

For orientation, consider the following solved cases.
• CC(C)N1CCC(Oc2ccc3c(c2)cc2n3CCN(Cc3ccccn3)C2=O)CC1 = 0.014
• CC(C)N1CCC(Oc2ccc3c(c2)cc2n3CCN(CC(F)(F)F)C2=O)CC1 = 0.04
• C[C@@H]1CCCN1CCCOc1ccc2c(c1)cc1n2CCNC1=O = 0.004

[1] CC(C)N1CCC(Oc2ccc3c(c2)cc2n3C[C@H](C)NC2=O)CC1
[2] C[C@H]1CCCN1CCCOc1ccc2c(c1)cc1n2CCNC1=O
[3] CC(C)N1CCC(Oc2ccc3c(c2)cc2n3CCN(CCO)C2=O)CC1
input: Sort the compounds on EC50; start with the lowest figure. The response must list the labels following the requested ordering.
output: 1, 3, 2

[a] CC(C)N1CCC(Oc2ccc3c(c2)cc2n3CCN(Cc3ccncc3)C2=O)CC1
[b] CC(C)N1CCC(Oc2ccc3c(c2)cc2n3CCN(Cc3ccccc3F)C2=O)CC1
input: Compare reported EC50 values for a and b . Which is lower? Refer to your chosen entry by its label in the reply.
output: a

[P] COCCN1CCn2c(cc3cc(OC4CCN(C(C)C)CC4)ccc32)C1=O
[Q] O=C1NCCn2c1cc1cc(OCCCN3CCCCC3)ccc12
input: Determine, for P and Q , which has the greater value of EC50. Record your answer as the label of the chosen record.
output: Q
(Q: 0.074 µM, P: 0.051 µM)

----------
Each entry below carries its measured IC50, system: Cytochrome P450 3A4 (Homo sapiens, UniProt P08684).
Sequence (P08684 whole entry): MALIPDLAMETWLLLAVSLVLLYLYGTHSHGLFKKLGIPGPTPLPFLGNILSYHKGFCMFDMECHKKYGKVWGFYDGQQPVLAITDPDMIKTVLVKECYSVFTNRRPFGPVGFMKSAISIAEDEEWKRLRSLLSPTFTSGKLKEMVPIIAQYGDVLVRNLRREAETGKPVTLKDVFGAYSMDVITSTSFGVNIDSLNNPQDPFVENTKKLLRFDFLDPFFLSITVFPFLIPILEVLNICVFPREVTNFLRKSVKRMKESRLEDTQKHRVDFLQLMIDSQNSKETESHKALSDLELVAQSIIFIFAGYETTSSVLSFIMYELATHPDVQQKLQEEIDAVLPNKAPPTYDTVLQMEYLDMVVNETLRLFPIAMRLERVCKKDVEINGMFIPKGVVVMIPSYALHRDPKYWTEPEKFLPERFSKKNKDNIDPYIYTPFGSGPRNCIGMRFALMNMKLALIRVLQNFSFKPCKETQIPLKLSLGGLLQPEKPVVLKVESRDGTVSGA

// worked examples, IC50 included
• CC(C)N1CCC(Oc2ccc3c(c2)cc2n3C[C@H](C)NC2=O)CC1 = > 50 µM
• CC(C)N1CCC(Oc2ccc3c(c2)cc2n3CCN(Cc3ccncc3)C2=O)CC1 = 6 µM
• CC(C)N1CCC(Oc2cc3cc4n(c3cc2Br)[C@@H](C)CNC4=O)CC1 = > 50 µM
• CC(C)N1CCC(Oc2ccc3c(c2)cc2n3CCCNC2=O)CC1 = > 50 µM
• CC(C)N1CCC(Oc2ccc3c(c2)cc2n3CCN(CC3CC3)C2=O)CC1 = > 50 µM

Item `CC(C)N1CCC(Oc2ccc3c(c2)cc2n3CCN(CCO)C2=O)CC1` was tested on Cytochrome P450 3A4 (Homo sapiens, UniProt P08684); the reported IC50 is > 50 µM

Short answer on Cytochrome P450 3A4 (Homo sapiens, UniProt P08684) for `CC(C)N1CCC(Oc2ccc3c(c2)cc2n3[C@@H](C)CNC2=O)CC1` , IC50: 26 µM

`CC(C)N1CCC(Oc2ccc3c(c2)cc2n3CCNC2=O)CC1` tested on Cytochrome P450 3A4 (Homo sapiens, UniProt P08684) gave IC50: > 50 µM

----------
test: Aqueous solubility of the compound in 0.05 M phosphate buffer at pH 6.5
Format: physicochemical
measure-name: solubility

- CC(C)N1CCC(Oc2ccc3c(c2)cc2n3CCN(CCO)C2=O)CC1: > 406 µg/mL

solubility reported for this compound `CC(C)N1CCC(Oc2ccc3c(c2)cc2n3C[C@@H](C)N(CC3CC3)C2=O)CC1` : > 441 µg/mL

----------
tested-target: UniProtKB P25021
Sequence (P25021 whole entry): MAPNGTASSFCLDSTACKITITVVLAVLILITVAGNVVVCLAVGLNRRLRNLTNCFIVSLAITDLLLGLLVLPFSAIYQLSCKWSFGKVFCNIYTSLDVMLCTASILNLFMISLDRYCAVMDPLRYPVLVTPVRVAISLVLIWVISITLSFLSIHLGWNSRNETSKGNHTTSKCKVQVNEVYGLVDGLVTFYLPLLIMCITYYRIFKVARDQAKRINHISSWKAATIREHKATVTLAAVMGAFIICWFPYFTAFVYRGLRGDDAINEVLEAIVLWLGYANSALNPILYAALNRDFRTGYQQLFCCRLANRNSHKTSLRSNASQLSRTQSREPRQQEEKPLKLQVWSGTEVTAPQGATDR
test: Displacement of [3H]-tiotidine from human histamine H2 receptor
Parameters: concentration or dose not given beside the values
condition-notes: concentration not given here
measure-name: inhibition (%)

Take a look at these entries with their results.
- O=C1NCCn2c1cc1cc(OC3CCN(CC4CC4)CC3)ccc12: 9
- CC(C)N1CCC(Oc2ccc3c(c2)cc2n3CCCN(CC3CC3)C2=O)CC1: 15
- CC(C)N1CCC(Oc2ccc3c(c2)cc(C(=O)N2CCC(F)(F)CC2)n3C(C)C)CC1: -6
- CC(C)N1CCC(Oc2ccc3c(c2)cc2n3CCN(Cc3cccnc3)C2=O)CC1: 3
- CC(C)N1CCC(Oc2ccc3c(c2)cc2n3CCN(CC(F)(F)F)C2=O)CC1: -6
- CC(C)N1CCC(Oc2ccc3c(c2)cc2n3C[C@@H](C)NC2=O)CC1: 13

[I] CC(C)N1CCC(Oc2ccc3c(c2)cc2n3CCN(C(C)C)C2=O)CC1
[II] CC(C)N1CCC(Oc2ccc3c(c2)cc2n3CCN(CCO)C2=O)CC1
input: For the two items I and II , which reports the higher inhibition value? Indicate your choice by writing its label.
output: II

[1] C[C@H]1CCCN1CCCOc1ccc2c(c1)cc1n2CCNC1=O
[2] CC(C)N1CCC(Oc2cc3cc4n(c3cc2Br)[C@@H](C)CN(CC2CC2)C4=O)CC1
input: Of 1 and 2 , which one carries the higher reported inhibition? State your choice using its label.
output: 1

----------
test: Lipophilicity, log D of the compound at pH 7.4
Assay type: physicochemical
condition-notes: buffer
measure-name: logD

For orientation, consider the following solved cases.
- CC(C)N1CCC(Oc2ccc3c(c2)cc2n3CCN(Cc3ccc(F)cc3)C2=O)CC1: 2.06
- CC(C)N1CCC(Oc2cc3cc4n(c3cc2Br)[C@@H](C)CN(CC2CC2)C4=O)CC1: 2.32
- CC(C)N1CCC(Oc2ccc3c(c2)cc2n3CCNC2=O)CC1: -0.05

[a] C[C@@H]1CCCN1CCCOc1ccc2c(c1)cc1n2CCNC1=O
[b] CC(C)N1CCC(Oc2ccc3c(c2)cc2n3C[C@H](C)NC2=O)CC1
input: # return whichever of a and b has the smaller logD Your answer should be the label of the entry you select.
output: a

----------
Cytochrome P450 2C9 (Homo sapiens, UniProt P11712): reported pIC50 for various molecules.
Sequence (P11712 whole entry): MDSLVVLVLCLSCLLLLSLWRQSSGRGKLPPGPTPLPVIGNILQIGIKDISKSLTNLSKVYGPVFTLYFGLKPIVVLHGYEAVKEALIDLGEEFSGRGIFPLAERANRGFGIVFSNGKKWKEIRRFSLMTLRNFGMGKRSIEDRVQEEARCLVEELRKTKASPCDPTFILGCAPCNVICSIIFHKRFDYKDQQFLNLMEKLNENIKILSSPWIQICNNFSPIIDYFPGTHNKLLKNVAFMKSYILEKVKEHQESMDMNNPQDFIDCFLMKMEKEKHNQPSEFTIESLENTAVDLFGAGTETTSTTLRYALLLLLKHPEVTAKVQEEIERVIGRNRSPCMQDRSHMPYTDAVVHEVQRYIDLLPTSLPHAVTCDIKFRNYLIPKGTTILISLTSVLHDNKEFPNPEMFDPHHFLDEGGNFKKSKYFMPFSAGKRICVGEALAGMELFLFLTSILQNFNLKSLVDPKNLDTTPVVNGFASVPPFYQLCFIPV
pIC50: −log10 of the molar value.

- CC(C)N1CCC(Oc2cc3cc4n(c3cc2Br)[C@@H](C)CNC4=O)CC1: < 4.30
- CC(C)N1CCC(Oc2ccc3c(c2)cc2n3CCN(CCO)C2=O)CC1: < 4.30
- CC(C)N1CCC(Oc2cc3cc4n(c3cc2Br)[C@@H](C)CN(CC2CC2)C4=O)CC1: < 4.30

Value of measured pIC50 for the entry `CC(C)N1CCC(Oc2ccc3c(c2)cc2n3CCCNC2=O)CC1` : < 4.30

So, `CC(C)N1CCC(Oc2ccc3c(c2)cc2n3CCN(Cc3ccc(F)cc3)C2=O)CC1` ? Its pIC50 was < 4.30

Input `CC(C)N1CCC(Oc2ccc3c(c2)cc(C(=O)N2CCC(F)(F)CC2)n3C(C)C)CC1` . Output pIC50: < 4.30

`CC(C)N1CCC(Oc2ccc3c(c2)cc2n3CCN(Cc3ccncc3)C2=O)CC1` yielded pIC50 of < 4.30

----------
tested-target: Histamine H1 receptor (Homo sapiens)
test: Displacement of [3H]-mepyramine from human histamine H1 receptor
Parameters: concentration or dose not given beside the values
condition-notes: concentration not given here
measure-name: inhibition (%)

Example entries begin here.
- CC(C)N1CCC(Oc2ccc3c(c2)cc2n3CCN(Cc3cccc(F)c3)C2=O)CC1: 24
- CC(C)N1CCC(Oc2ccc3c(c2)cc2n3CCN(Cc3ccncc3)C2=O)CC1: 4
- CC(C)N1CCC(Oc2ccc3c(c2)cc2n3C[C@@H](C)NC2=O)CC1: 2
- CC(C)N1CCC(Oc2ccc3c(c2)cc2n3CCN(Cc3ccccn3)C2=O)CC1: 6

[a] CC(C)N1CCC(Oc2ccc3c(c2)cc2n3[C@@H](C)CNC2=O)CC1
[b] CC(C)N1CCC(Oc2ccc3c(c2)cc2n3C[C@H](C)NC2=O)CC1
input: Higher inhibition: a or b ? In your reply, give the label of the chosen option.
output: a
(a: 11%, b: -2%)

[A] CC(C)N1CCC(Oc2ccc3c(c2)cc(C(=O)N2CCC(F)(F)CC2)n3C(C)C)CC1
[B] CC(C)N1CCC(Oc2ccc3c(c2)cc2n3CCN(Cc3cccnc3)C2=O)CC1
input: Param pair: A , B . Output: the one whose inhibition is numerically greater. In your reply, give the label of the chosen option.
output: A
(A: 9%, B: 3%)

----------
tested-target: Histamine H4 receptor (Homo sapiens)
test: Displacement of [3H]-histamine from human histamine H4 receptor
Set-up: concentration or dose not given beside the values
condition-notes: concentration not given here
measure-name: inhibition (%)

// solved cases for inhibition follow
- CC(C)N1CCC(Oc2ccc3c(c2)cc2n3C[C@@H](C)NC2=O)CC1: 7
- CC(C)N1CCC(Oc2ccc3c(c2)cc2n3CCN(CC3CC3)C2=O)CC1: 7
- CC(C)N1CCC(Oc2ccc3c(c2)cc2n3CCNC2=O)CC1: 6

[a] CC(C)N1CCC(Oc2cc3cc4n(c3cc2Br)[C@@H](C)CNC4=O)CC1
[b] CC(C)N1CCC(Oc2ccc3c(c2)cc2n3CCCN(CC3CC3)C2=O)CC1
input: Min inhibition? a | b Lab note: record the label of whichever item you select.
output: a
(a: -10%, b: -7%)

[A] CC(C)N1CCC(Oc2ccc3c(c2)cc2n3CCCNC2=O)CC1
[B] C[C@H]1CC[C@H](C)N1CCCOc1ccc2c(c1)cc1n2CCNC1=O
input: // which entry reports the smaller inhibition, A or B ? Select an item and report its label.
output: A
(A: -3%, B: 6%)
